Test system: SW1271 complex spheroids with HUVEC/MSC, growth, % test/control
Assay: Anticancer human tumor SW1271 cell line growth inhibition [AhR];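 further: spheroids exposed to agents for 7 days before readout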
Conditions: second compound 10 µM; first compound 0.1 µM; stronger effect = lower value
measured metric: viability, T/C (%)
Give your result in % as a bare value.

Known results for molecules:
| molecule | viability, T/C / % |
| --- | --- |
| Nc1ccccc1NC(=O)c1ccc(CNC(=O)OCc2cccnc2)cc1 + Cc1ccccc1N=Nc1ccc(NC(=O)c2ccnn2C)c(C)c1 | 94 |
| CC(C)c1c(-c2ccccc2)nc2c(C#N)c[nH]n2c1=O + Cc1cncc(-c2nc(NCCc3c[nH]c4ccccc34)c3ncn(C(C)C)c3n2)c1 | 58 |

Fill in: viability, T/C of CC1COCCN1c1cc(-c2ccnn2C)c2ccnc(-c3ccn[nH]3)c2n1 (configuration not stated) + Cc1ccccc1N=Nc1ccc(NC(=O)c2ccnn2C)c(C)c1 is ___
72.3

Fill in: viability, T/C of CC1COCCN1c1cc(C2(S(C)(=N)=O)CC2)nc(-c2ccnc3[nH]ccc23)n1 (configuration not stated) + CC(CO)NC(=O)c1cc(-c2ccc(Cl)cc2)nn(-c2cnn(C)c2)c1=O is ___
67.6

* * *

Tested on: SW1271 complex spheroids with HUVEC/MSC, growth, % test/control
Experiment: Anticancer human tumor SW1271 cell line growth inhibition [AhR];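 further: spheroids exposed to agents for 7 days before readout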
Conditions: second compound 10 µM; first compound 0.316 µM; stronger effect = lower value
Recorded viability, T/C, one value per entry.
Give your result in % as a bare value.

Known results for molecules:
| molecule | recorded value |
| --- | --- |
| COc1cccc2c1C(=O)c1c(O)c3c(c(O)c1C2=O)CC(O)(C(=O)CO)CC3OC1CC(N)C(O)C(C)O1 (stereo not drawn) + Cc1ccccc1N=Nc1ccc(NC(=O)c2ccnn2C)c(C)c1 | 35.4 |
| COc1ccc([C@@H](O)c2cc(-c3ncnc4cc(N5CCOCC5)ccc34)c(F)cc2Cl)nn1 + Cc1cncc(-c2nc(NCCc3c[nH]c4ccccc34)c3ncn(C(C)C)c3n2)c1 | 41.5 |

Lab note: next molecule to report on.
Fill in: viability, T/C of COc1cccc2c1C(=O)c1c(O)c3c(c(O)c1C2=O)CC(O)(C(=O)CO)CC3OC1CC(N)C(O)C(C)O1 (stereo not drawn) + CC(CO)NC(=O)c1cc(-c2ccc(Cl)cc2)nn(-c2cnn(C)c2)c1=O is ___
37

* * *

Recorded viability, T/C, one value per entry.
Test system: SW1271 complex spheroids with HUVEC/MSC, growth, % test/control
Test: Anticancer human tumor SW1271 cell line growth inhibition [AhR];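 further: spheroids exposed to agents for 7 days before readout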
Settings: second compound 10 µM; first compound 3.16 µM; stronger effect = lower value
Give your result in % as a bare value.

Fill in: viability, T/C of CC(C)c1c(-c2ccccc2)nc2c(C#N)c[nH]n2c1=O + Cc1cncc(-c2nc(NCCc3c[nH]c4ccccc34)c3ncn(C(C)C)c3n2)c1 is ___
44.8

Fill in: viability, T/C of COc1cc(C2c3cc4c(cc3C(OC3OC5COC(C)OC5C(O)C3O)C3COC(=O)C23)OCO4)cc(OC)c1O (configuration not stated) + Cc1ccccc1N=Nc1ccc(NC(=O)c2ccnn2C)c(C)c1 is ___
43.8

Fill in: viability, T/C of Nc1ccn(C2OC(CO)C(O)C2(F)F)c(=O)n1 (configuration not stated) + Cc1cncc(-c2nc(NCCc3c[nH]c4ccccc34)c3ncn(C(C)C)c3n2)c1 is ___
37.8

Fill in: viability, T/C of O=C(C=Cc1cccc(S(=O)(=O)Nc2ccccc2)c1)NO + CC(CO)NC(=O)c1cc(-c2ccc(Cl)cc2)nn(-c2cnn(C)c2)c1=O is ___
26.7

Fill in: viability, T/C of Nc1ccccc1NC(=O)c1ccc(CNC(=O)OCc2cccnc2)cc1 + Cc1cncc(-c2nc(NCCc3c[nH]c4ccccc34)c3ncn(C(C)C)c3n2)c1 is ___
18.3

Fill in: viability, T/C of COc1cc(Nc2ncc3c(n2)-c2ccc(Cl)cc2C(c2c(F)cccc2OC)=NC3)ccc1C(=O)O + Cc1ccccc1N=Nc1ccc(NC(=O)c2ccnn2C)c(C)c1 is ___
75.8

Fill in: viability, T/C of CC1COCCN1c1cc(C2(S(C)(=N)=O)CC2)nc(-c2ccnc3[nH]ccc23)n1 (configuration not stated) + CC(CO)NC(=O)c1cc(-c2ccc(Cl)cc2)nn(-c2cnn(C)c2)c1=O is ___
69.2

* * *

System: SW1271 complex spheroids with HUVEC/MSC, growth, % test/control
Assay: Anticancer human tumor SW1271 cell line growth inhibition [AhR];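 further: spheroids exposed to agents for 7 days before readout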
Conditions: second compound 0.1 µM; first compound 10 µM; stronger effect = lower value
Recorded viability, T/C, one value per entry.
Give your result in % as a bare value.

Known results for molecules:
| molecule | measured target | viability, T/C [%] |
| --- | --- | --- |
| Nc1ccccc1NC(=O)c1ccc(CNC(=O)OCc2cccnc2)cc1 + Cc1ccccc1N=Nc1ccc(NC(=O)c2ccnn2C)c(C)c1 | SW1271 complex spheroids with HUVEC/MSC, growth, % test/control | 13.6 |
| COc1ccc([C@@H](O)c2cc(-c3ncnc4cc(N5CCOCC5)ccc34)c(F)cc2Cl)nn1 + CC(CO)NC(=O)c1cc(-c2ccc(Cl)cc2)nn(-c2cnn(C)c2)c1=O | SW1271 complex spheroids with HUVEC/MSC, growth, % test/control | 28 |

Fill in: viability, T/C of CC1COCCN1c1cc(C2(S(C)(=N)=O)CC2)nc(-c2ccnc3[nH]ccc23)n1 (stereo not drawn) + Cc1ccccc1N=Nc1ccc(NC(=O)c2ccnn2C)c(C)c1 is ___
52.5

* * *

Test system: SW1271 complex spheroids with HUVEC/MSC, growth, % test/control
Experiment: Anticancer human tumor SW1271 cell line growth inhibition [AhR];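 further: spheroids exposed to agents for 7 days before readout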
Settings: second compound 0.1 µM; first compound 10 µM; stronger effect = lower value
Label key: satisfied means viability, T/C under 60%; not satisfied means viability, T/C of 60% or more.

Solved cases below.
| molecule | category label |
| --- | --- |
| COc1ccc([C@@H](O)c2cc(-c3ncnc4cc(N5CCOCC5)ccc34)c(F)cc2Cl)nn1 + Cc1cncc(-c2nc(NCCc3c[nH]c4ccccc34)c3ncn(C(C)C)c3n2)c1 | satisfied |
| COc1cc(C2c3cc4c(cc3C(OC3OC5COC(C)OC5C(O)C3O)C3COC(=O)C23)OCO4)cc(OC)c1O (configuration not stated) + Cc1cncc(-c2nc(NCCc3c[nH]c4ccccc34)c3ncn(C(C)C)c3n2)c1 | not satisfied |
| CC1(C)CCC(CN2CCN(c3ccc(C(=O)NS(=O)(=O)c4ccc(NCC5CCOCC5)c([N+](=O)[O-])c4)c(Oc4cnc5[nH]ccc5c4)c3)CC2)=C(c2ccc(Cl)cc2)C1 + Cc1ccccc1N=Nc1ccc(NC(=O)c2ccnn2C)c(C)c1 | not satisfied |
| Nc1ccn(C2OC(CO)C(O)C2(F)F)c(=O)n1 (configuration not stated) + Cc1cncc(-c2nc(NCCc3c[nH]c4ccccc34)c3ncn(C(C)C)c3n2)c1 | satisfied |
| CC1COCCN1c1cc(C2(S(C)(=N)=O)CC2)nc(-c2ccnc3[nH]ccc23)n1 (configuration not stated) + Cc1cncc(-c2nc(NCCc3c[nH]c4ccccc34)c3ncn(C(C)C)c3n2)c1 | not satisfied |
| CC(C)c1c(-c2ccccc2)nc2c(C#N)c[nH]n2c1=O + Cc1ccccc1N=Nc1ccc(NC(=O)c2ccnn2C)c(C)c1 | not satisfied |
| COc1cccc2c1C(=O)c1c(O)c3c(c(O)c1C2=O)CC(O)(C(=O)CO)CC3OC1CC(N)C(O)C(C)O1 (configuration not stated) + Cc1ccccc1N=Nc1ccc(NC(=O)c2ccnn2C)c(C)c1 | satisfied |
| O=C(C=Cc1cccc(S(=O)(=O)Nc2ccccc2)c1)NO + Cc1cncc(-c2nc(NCCc3c[nH]c4ccccc34)c3ncn(C(C)C)c3n2)c1 | satisfied |

A record lists COc1cc(C2c3cc4c(cc3C(OC3OC5COC(C)OC5C(O)C3O)C3COC(=O)C23)OCO4)cc(OC)c1O (configuration not stated) + CC(CO)NC(=O)c1cc(-c2ccc(Cl)cc2)nn(-c2cnn(C)c2)c1=O . Is its viability, T/C below 60%?
satisfied

A record lists O=C(c1cc(Cc2n[nH]c(=O)c3ccccc23)ccc1F)N1CCN(C(=O)C2CC2)CC1 + Cc1ccccc1N=Nc1ccc(NC(=O)c2ccnn2C)c(C)c1 . Is its viability, T/C below 60%?
not satisfied

A record lists COc1cc(Nc2ncc3c(n2)-c2ccc(Cl)cc2C(c2c(F)cccc2OC)=NC3)ccc1C(=O)O + Cc1cncc(-c2nc(NCCc3c[nH]c4ccccc34)c3ncn(C(C)C)c3n2)c1 . Is its viability, T/C below 60%?
not satisfied

* * *

Tested on: SW1271 complex spheroids with HUVEC/MSC, growth, % test/control
Test: Anticancer human tumor SW1271 cell line growth inhibition [AhR];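 further: spheroids exposed to agents for 7 days before readout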
Details: second compound 10 µM; first compound 0.316 µM; stronger effect = lower value
Recorded viability, T/C, one value per entry.
Give your result in % as a bare value.

Known results for compounds:
| compound | measured target | recorded value |
| --- | --- | --- |
| CC1COCCN1c1cc(-c2ccnn2C)c2ccnc(-c3ccn[nH]3)c2n1 (stereo not drawn) + Cc1cncc(-c2nc(NCCc3c[nH]c4ccccc34)c3ncn(C(C)C)c3n2)c1 | SW1271 complex spheroids with HUVEC/MSC, growth, % test/control | 35 |
| CC(C)c1c(-c2ccccc2)nc2c(C#N)c[nH]n2c1=O + CC(CO)NC(=O)c1cc(-c2ccc(Cl)cc2)nn(-c2cnn(C)c2)c1=O | SW1271 complex spheroids with HUVEC/MSC, growth, % test/control | 67.8 |

Lab note: next compound to report on.
Fill in: viability, T/C of Nc1ccccc1NC(=O)c1ccc(CNC(=O)OCc2cccnc2)cc1 + CC(CO)NC(=O)c1cc(-c2ccc(Cl)cc2)nn(-c2cnn(C)c2)c1=O is ___
43.5
